meta.source: patent US9603833B2

Biological target: human VAP-1 enzyme (SSAO) (Homo sapiens (Human), UniProt Q16853)
Sequence (Q16853 whole entry): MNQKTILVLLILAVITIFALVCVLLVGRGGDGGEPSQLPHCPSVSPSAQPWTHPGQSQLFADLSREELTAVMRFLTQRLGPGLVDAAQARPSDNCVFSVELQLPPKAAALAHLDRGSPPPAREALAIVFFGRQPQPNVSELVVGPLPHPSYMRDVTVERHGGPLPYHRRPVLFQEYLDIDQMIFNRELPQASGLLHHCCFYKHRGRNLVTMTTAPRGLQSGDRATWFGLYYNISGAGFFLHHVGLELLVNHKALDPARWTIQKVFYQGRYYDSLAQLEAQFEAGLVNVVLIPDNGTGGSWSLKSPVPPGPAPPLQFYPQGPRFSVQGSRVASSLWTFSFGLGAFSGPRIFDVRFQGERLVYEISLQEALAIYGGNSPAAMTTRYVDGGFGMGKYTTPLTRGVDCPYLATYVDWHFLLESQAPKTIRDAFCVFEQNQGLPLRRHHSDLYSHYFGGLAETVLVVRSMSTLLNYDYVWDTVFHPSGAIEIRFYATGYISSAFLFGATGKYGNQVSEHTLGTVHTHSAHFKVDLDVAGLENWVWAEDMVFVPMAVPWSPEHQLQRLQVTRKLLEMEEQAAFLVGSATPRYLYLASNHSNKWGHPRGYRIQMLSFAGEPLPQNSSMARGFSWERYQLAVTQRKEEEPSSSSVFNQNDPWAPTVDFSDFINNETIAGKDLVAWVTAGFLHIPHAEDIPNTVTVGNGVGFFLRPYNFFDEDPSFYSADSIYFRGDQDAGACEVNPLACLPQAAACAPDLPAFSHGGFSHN
Where a name gives a salt, the structure may show the parent alone.
Labelling field: enter Met if recorded IC50 is less than 7 nM. Enter Not met if it equals or exceeds that cut-off.

compound: NNC(=O)Cc1ccc(CCc2cc(N3CCNCC3)ncn2)cc1 [Production Example 106]
cat: Not met
//
compound: NNC(=O)Cc1ccc(CCc2ccc(N3CCCCC3)nc2)cc1 [Production Example 45, trihydrochloride]
cat: Not met
//
compound: NNC(=O)Cc1ccc(CCc2ccc(N3CCNCC3)s2)cc1 [Production Example 74, trihydrochloride]
cat: Not met
//
compound: NNC(=O)Cc1ccc(CCc2ccc(CN3CCOCC3)cc2)cc1 [Production Example 70, dihydrochloride]
cat: Not met
//
compound: CC(=O)N1CCN(c2ccc(CCc3ccc(CCOC(=O)NN)cc3)nc2)CC1 [Production Example 122, trihydrochloride]
cat: Met
//
compound: CC(=O)N1CCN(c2ccc(CCc3ccc(CC(=O)NN)cc3)nc2)CC1 [Production Example 87, trihydrochloride]
cat: Met
//
compound: CC(=O)N1CCN(c2ccc(CCc3ccc(CNC(=O)NN)cc3F)nc2)CC1 [Production Example 114, trihydrochloride]
cat: Met
//
compound: CC(=O)N1CCN(c2ccc(CCc3ccc(CCC(=O)NN)cc3)nc2)CC1 [Production Example 119, trihydrochloride]
cat: Met
//
compound: CC(=O)N1CCN(c2ccc(CCc3ccc(CC(=O)NN)s3)nc2)CC1 [Production Example 120]
cat: Met
